Taken from patent US20260365653A1.

Tested On: mutEGFR (D770_N771insSVD) (Homo sapiens, UniProt P00533, DUP768-770)
Construct: GST-EGFR #3 (SVD between D770 and N771); made in house; host or cells: Sf9 insect cells (baculovirus)
Sequence (P00533 with tags, fused parts or gaps DUP768-770): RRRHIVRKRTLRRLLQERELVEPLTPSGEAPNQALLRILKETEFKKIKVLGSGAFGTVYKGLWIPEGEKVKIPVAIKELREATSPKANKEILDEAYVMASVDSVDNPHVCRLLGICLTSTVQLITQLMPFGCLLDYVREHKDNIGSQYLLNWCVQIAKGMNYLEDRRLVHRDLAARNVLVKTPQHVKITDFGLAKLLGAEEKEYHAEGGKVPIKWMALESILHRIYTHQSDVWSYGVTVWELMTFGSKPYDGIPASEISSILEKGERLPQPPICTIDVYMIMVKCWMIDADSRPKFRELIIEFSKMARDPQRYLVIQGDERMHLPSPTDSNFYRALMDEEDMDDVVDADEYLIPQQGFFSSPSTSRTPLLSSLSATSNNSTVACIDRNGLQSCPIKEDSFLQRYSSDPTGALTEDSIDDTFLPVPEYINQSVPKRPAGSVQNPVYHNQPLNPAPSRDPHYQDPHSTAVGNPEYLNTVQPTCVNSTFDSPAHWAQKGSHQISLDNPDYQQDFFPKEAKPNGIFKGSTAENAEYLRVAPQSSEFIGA
Experimental Details: Exon20-Mutant-EGFR (D770_N771insSVD) kinase assay (TR-FRET)
Format: biochemical
Experimental Context: mutEGFR (D770_N771insSVD) kinase assay IC50, Table 2a; D770_N771insSVD; 2 mM ATP
Measured Metric: pIC50
pIC50 is defined as minus the log10 of a concentration measured in mol/L.

Worked set:
{"Compound": "C=CC(=O)N1CCn2nc(Nc3ccc(F)cc3)c(-c3ccncc3)c2C1", "Quantitative Result": 7.59}
{"Compound": "COc1ccc(-c2nn3c(c2-c2ccncc2)CN(C(=O)/C=C/CN(C)C)CC3)cc1Cl", "Quantitative Result": 8.42}
{"Compound": "O=C(/C=C/CF)N1CCn2nc(-c3ccc(F)cc3)c(-c3ccncc3)c2C1", "Quantitative Result": 8.41}

## Task Short answer please: pIC50, mutEGFR (D770_N771insSVD) (Homo sapiens, UniProt P00533, DUP768-770), entry `C[C@H]1Cn2nc(-c3ccc(Cl)cc3)c(-c3ccncc3)c2CN1C(=O)/C=C/CN(C)C`
## Result 9.95

## Task Short answer please: pIC50, mutEGFR (D770_N771insSVD) (Homo sapiens, UniProt P00533, DUP768-770), entry `C=CC(=O)N1CCn2nc(Nc3ccc(C(F)(F)F)cc3)c(-c3ccnc4[nH]cc(C)c34)c2C1`
## Result 6.67

## Task Short answer please: pIC50, mutEGFR (D770_N771insSVD) (Homo sapiens, UniProt P00533, DUP768-770), entry `CO[C@H]1CCN(C/C=C/C(=O)N2CCn3nc(-c4ccc(F)cc4)c(-c4ccncc4)c3C2)C1`
## Result 9.01

## Task Short answer please: pIC50, mutEGFR (D770_N771insSVD) (Homo sapiens, UniProt P00533, DUP768-770), entry `C=CC(=O)N1CCn2nc(-c3cccc(C#N)c3)c(-c3ccncc3)c2C1`
## Result 7.49

## Task Short answer please: pIC50, mutEGFR (D770_N771insSVD) (Homo sapiens, UniProt P00533, DUP768-770), entry C=CC(=O)N1C(C)c2c(-c3ccncc3)c(-c3ccc(Cl)cc3F)nn2C[C@@H]1C (single isomer, unassigned; isomer 2) [Example 293]
## Result 7.30

## Task Short answer please: pIC50, mutEGFR (D770_N771insSVD) (Homo sapiens, UniProt P00533, DUP768-770), entry CC1CN(C(=O)/C=C/CN(C)C)Cc2c(-c3ccncc3)c(-c3ccc(Cl)cc3F)nn21 (single isomer, unassigned; isomer 1)
## Result 9.66

## Task Short answer please: pIC50, mutEGFR (D770_N771insSVD) (Homo sapiens, UniProt P00533, DUP768-770), entry `CC(C)N(C)C/C=C/C(=O)N1CCn2nc(-c3ccc(Cl)cc3)c(-c3ccncc3)c2C1`
## Result 9.77

## Task Short answer please: pIC50, mutEGFR (D770_N771insSVD) (Homo sapiens, UniProt P00533, DUP768-770), entry `C=CC(=O)N1CCn2nc(-c3ccc(Cl)cc3F)c(-c3ccnc4[nH]cc(F)c34)c2C1`
## Result 8.22

## Task Short answer please: pIC50, mutEGFR (D770_N771insSVD) (Homo sapiens, UniProt P00533, DUP768-770), entry C=CC(=O)N1CCn2nc(-c3ccc(F)cc3)c(-c3ccnc4[nH]cc(C)c34)c2C1C (single isomer, unassigned; isomer 1) [Example 262]
## Result 5.79

## Task Short answer please: pIC50, mutEGFR (D770_N771insSVD) (Homo sapiens, UniProt P00533, DUP768-770), entry `O=C(/C=C/C(F)F)N1CCn2nc(-c3ccc(Cl)cc3F)c(-c3ccncc3)c2C1`
## Result 9.74

## Task Short answer please: pIC50, mutEGFR (D770_N771insSVD) (Homo sapiens, UniProt P00533, DUP768-770), entry `C=CC(=O)N1CCn2nc(-c3ccc(Cl)cc3F)c(-c3ccnc4[nH]ccc34)c2C1`
## Result 8.78

## Task Short answer please: pIC50, mutEGFR (D770_N771insSVD) (Homo sapiens, UniProt P00533, DUP768-770), entry `C=CC(=O)N1Cc2c(-c3ccncc3)c(-c3ccc(F)cc3)nn2C(C)(C)C1`
## Result 9.19

====

Tested On: mutEGFR (D770_N771insSVD) (Homo sapiens, UniProt P00533, DUP768-770)
Construct: GST-EGFR #3 (SVD between D770 and N771); made in house; host or cells: Sf9 insect cells (baculovirus)
Experimental Details: Exon20-Mutant-EGFR (D770_N771insSVD) kinase assay (TR-FRET)
Assay type: biochemical
Experimental Context: mutEGFR (D770_N771insSVD) kinase assay IC50, Table 2a; D770_N771insSVD; 2 mM ATP
Measured Metric: pIC50
pIC50 is defined as minus the log10 of a concentration measured in mol/L.

{"Smiles Input": "O=C(/C=C/CN1CCCCC1)N1CCn2nc(-c3ccc(Cl)cc3)c(-c3ccncc3)c2C1", "Quantitative Result": 9.80}

## Task Short answer please: pIC50, mutEGFR (D770_N771insSVD) (Homo sapiens, UniProt P00533, DUP768-770), entry `CN(C)C/C=C/C(=O)N1CCn2nc(-c3ccc(OC(F)(F)F)cc3)c(-c3ccncc3)c2C1`
## Result 8.05

## Task Short answer please: pIC50, mutEGFR (D770_N771insSVD) (Homo sapiens, UniProt P00533, DUP768-770), entry `CN(C)C/C=C/C(=O)N1CCn2nc(-c3ccc(Cl)cc3F)c(-c3ccnc4[nH]ccc34)c2C1`
## Result 8.43

## Task Short answer please: pIC50, mutEGFR (D770_N771insSVD) (Homo sapiens, UniProt P00533, DUP768-770), entry `Cc1cc(-c2nn3c(c2-c2ccncc2)CN(C(=O)/C=C/CN(C)C)CC3(C)C)ccc1Cl`
## Result 9.57

====

Tested On: mutEGFR (D770_N771insSVD) (Homo sapiens, UniProt P00533, DUP768-770)
Construct: GST-EGFR #3 (SVD between D770 and N771); made in house; host or cells: Sf9 insect cells (baculovirus)
Experimental Details: Exon20-Mutant-EGFR (D770_N771insSVD) kinase assay (TR-FRET)
Type: biochemical
Experimental Context: mutEGFR (D770_N771insSVD) kinase assay IC50, Table 2a; D770_N771insSVD; 2 mM ATP
Each record is given yes if its reported IC50 is strictly below 3 nM. Records at or above 3 nM are given no.

{"Compound": "C=CC(=O)N1Cc2c(-c3ccncc3)c(-c3ccc(C(F)(F)F)cc3F)nn2C[C@@H]1C", "Tested On": "mutEGFR (D770_N771insSVD) (Homo sapiens, UniProt P00533, DUP768-770)", "Class": "yes"}
{"Compound": "C=CC(=O)N1Cc2c(-c3ccncc3)c(-c3ccc4sccc4c3)nn2C[C@@H]1C", "Tested On": "mutEGFR (D770_N771insSVD) (Homo sapiens, UniProt P00533, DUP768-770)", "Class": "yes"}
{"Compound": "C[C@H]1Cn2nc(-c3cccc(C#N)c3)c(-c3ccncc3)c2CN1C(=O)/C=C/CN(C)C", "Tested On": "mutEGFR (D770_N771insSVD) (Homo sapiens, UniProt P00533, DUP768-770)", "Class": "no"}
{"Compound": "C=CC(=O)N1CCn2nc(-c3ccc(C(F)(F)F)cc3)c(-c3ccnc4[nH]cc(C)c34)c2C1C (single isomer, unassigned; isomer 1)", "Tested On": "mutEGFR (D770_N771insSVD) (Homo sapiens, UniProt P00533, DUP768-770)", "Class": "no"}
{"Compound": "CN(C)C/C=C/C(=O)N1Cc2c(-c3ccncc3)c(-c3ccc(F)cc3)nn2CC1(C)C", "Tested On": "mutEGFR (D770_N771insSVD) (Homo sapiens, UniProt P00533, DUP768-770)", "Class": "no"}
{"Compound": "C=CC(=O)N1Cc2c(-c3ccncc3)c(-c3ccc(F)cc3)nn2C(C(=O)NC)C1 (single isomer, unassigned; isomer 1)", "Tested On": "mutEGFR (D770_N771insSVD) (Homo sapiens, UniProt P00533, DUP768-770)", "Class": "no"}

## Task Threshold test, IC50 < 3 nM: `C=CC(=O)N1CCn2nc(-c3cc(Cl)ccc3F)c(-c3ccncc3)c2C1`
## Result yes

## Task Threshold test, IC50 < 3 nM: CN(C)C/C=C/C(=O)N1Cc2c(-c3ccncc3)c(-c3ccc(F)cc3)nn2C(CO)C1 (racemic)
## Result yes

## Task Threshold test, IC50 < 3 nM: C=CC(=O)N1CCn2nc(-c3ccc(Cl)cc3F)c(-c3ccncc3)c2C1C (racemic) [Example 240]
## Result yes

## Task Threshold test, IC50 < 3 nM: `O=C(/C=C/CN1CCOCC1)N1CCn2nc(-c3ccc(F)cc3)c(-c3ccncc3)c2C1`
## Result yes

## Task Threshold test, IC50 < 3 nM: `C=CC(=O)N1CCn2nc(-c3ccc(F)cc3)c(-c3ccnc(OC)c3)c2C1`
## Result no

## Task Threshold test, IC50 < 3 nM: `C=CC(=O)N1CCn2nc(-c3ccc(C(F)(F)F)cc3F)c(-c3ccncc3)c2C1`
## Result yes
